Here the recorded Plant response rating, Velvetleaf is given for each entry.
# Tested on: velvetleaf
# Protocol Details: Test B pre/postemergence velvetleaf
# Type: in vivo, Abutilon theophrasti
# Assay Setup: Rate 250 g/ha, Postemergence; scale of 0 to 10 where 0 is no effect and 10 is complete control
Returns: the value as a bare number; no unit string appended.

> print(dat)
                                   compound                  reported.endpoint  measurement
1  COCn1c(=O)on(C(=O)N(c2ccccc2)C(C)C)c1=O [Compound 562]  Plant response rating, Velvetleaf            6
2  CCCCn1c(=O)on(C(=O)N(c2ccc(Cl)cc2)C(C)C)c1=O [Compound 527]  Plant response rating, Velvetleaf            3
3  CC(C)N(C(=O)n1oc(=O)n(COCc2ccccc2)c1=O)c1ccccc1 [Compound 579]  Plant response rating, Velvetleaf            0

Give Plant response rating, Velvetleaf (velvetleaf) of the following compound: COCCOCn1c(=O)on(C(=O)N(c2ccccc2)C(C)C)c1=O [Compound 564]
2

Give Plant response rating, Velvetleaf (velvetleaf) of the following compound: CCC=CCn1c(=O)on(C(=O)N(c2ccc(F)cc2)C(C)C)c1=O [Compound 286]
0

Give Plant response rating, Velvetleaf (velvetleaf) of the following compound: CC(=O)OCn1c(=O)on(C(=O)N(c2ccc(F)cc2)C(C)C)c1=O [Compound 292]
0

* * *

# Test system: giant foxtail
# Protocol Details: Test B pre/postemergence giant foxtail
# Format: in vivo, Setaria faberii
# Assay Setup: Rate 500 g/ha, Postemergence; scale 0 to 10
Here the recorded Giant foxtail plant response rating is given for each entry.

Consider the compound CCN(C(=O)n1oc(=O)n(N(C)c2ccccc2)c1=O)C1CCCCC1 and give its measured Giant foxtail plant response rating.
0

Consider the compound CN(C(=O)n1oc(=O)n(Cc2ccccc2)c1=O)c1ccccc1 and give its measured Giant foxtail plant response rating.
0

Consider the compound CC(C)N(C(=O)n1oc(=O)n(C(C)c2ccccc2)c1=O)c1ccc(Cl)cc1 (stereo not shown) and give its measured Giant foxtail plant response rating.
4

Consider the compound CC(C)N(C(=O)n1oc(=O)n(N(C)c2ccccc2)c1=O)c1ccc(F)cc1 and give its measured Giant foxtail plant response rating.
0

* * *

# Test system: sugar beet
# Protocol Details: Test B pre/postemergence sugar beet
# Assay type: in vivo, Beta vulgaris
# Assay Setup: Preemergence, Rate 250 g/ha; scale 0 to 10 (0 no effect, 10 complete control)
Here the recorded Plant response rating, Sugarbeets is given for each entry.
Returns: the value as a bare number; no unit string appended.

Previously resolved entries follow.
> print(dat)
                                   compound  measurement
1  CC(C)N(C(=O)n1oc(=O)n(Cc2nnc(Cl)s2)c1=O)c1ccc(Cl)cc1            0
2  CC(C)N(C(=O)n1oc(=O)n(Cc2nnc(Cl)s2)c1=O)c1ccc(F)cc1F            0
3  CCOC(=O)CC(C(=O)OCC)n1c(=O)on(C(=O)N(c2ccc(F)cc2)C(C)C)c1=O (centres unmarked)            0
4  CC(C)N(C(=O)n1oc(=O)n(Cc2nnc(Cl)s2)c1=O)c1ccc(F)cc1            0

Pending compound:
Consider the compound CC(C)N(C(=O)n1oc(=O)n(CC(=O)C2CCC2)c1=O)c1ccc(F)cc1 and give its measured Plant response rating, Sugarbeets.
6
